# assayed system: AKT1 WT (Homo sapiens, UniProt P31749)
# Construct: expressed in transfected cells; host or cells: HEK293
# Sequence (P31749 whole entry): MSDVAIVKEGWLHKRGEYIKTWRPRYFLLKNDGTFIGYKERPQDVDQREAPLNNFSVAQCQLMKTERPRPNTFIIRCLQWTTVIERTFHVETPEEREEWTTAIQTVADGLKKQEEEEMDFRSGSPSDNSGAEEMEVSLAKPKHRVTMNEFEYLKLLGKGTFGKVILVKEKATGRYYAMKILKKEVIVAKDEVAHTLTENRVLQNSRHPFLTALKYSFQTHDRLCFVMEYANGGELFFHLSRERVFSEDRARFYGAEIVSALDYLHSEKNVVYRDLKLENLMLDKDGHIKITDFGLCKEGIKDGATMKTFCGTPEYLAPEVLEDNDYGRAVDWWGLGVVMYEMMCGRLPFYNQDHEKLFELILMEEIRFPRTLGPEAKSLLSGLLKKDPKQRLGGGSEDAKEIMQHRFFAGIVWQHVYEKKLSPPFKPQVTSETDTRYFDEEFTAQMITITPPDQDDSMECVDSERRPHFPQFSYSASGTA
# assay name: Live cell AKT1 WT target engagement by NanoBRET competitive probe displacement in HEK293 cells
# Assay type: binding
# assay context: NanoBRET live cell target engagement, HEK293 cells, 2 h at 37° C.; read-out: AKT1 WT IC50
// classify: if (IC50 < 30 nM) y else n

Example cases with answers are listed next.
[[record]]
query_smiles = "Cc1csc(-c2ccc3nc(-c4cccnc4N)n(-c4ccc5c(c4)CC[C@@H]5NC(=O)c4ccn(C)n4)c3n2)n1"
discrete_label = "y"

[[record]]
query_smiles = "CN1Cc2cc(C(=O)N[C@H]3CCc4cc(-n5c(-c6cccnc6N)nc6ccc(-n7cccn7)nc65)ccc43)cnc2C1"
discrete_label = "y"


Criterion: IC50 strictly below 30 nM. Is it met by CS(=O)(=O)Nc1ccc(C(=O)N[C@H]2CCc3cc(-n4c(-c5cccnc5N)nc5ccc(-n6cccn6)nc54)ccc32)cc1 ? y

// same read-out, input: Nc1ncccc1-c1nc2ccc(-n3cccn3)nc2n1-c1ccc2c(c1)CC[C@@H]2NC(=O)c1ccnc2sccc12 y

// same read-out, input: COc1cc(C(=O)N[C@H]2CCc3cc(-n4c(-c5cccnc5N)nc5ccc(-n6cccn6)nc54)ccc32)ccc1O y

// same read-out, input: Nc1ncccc1-c1nc2ccc(-n3cccn3)nc2n1-c1ccc2c(c1)CC[C@@H]2NC(=O)c1ccc(O)nc1 n
